- system-tested: T1, recombinant purified mouse CXCL13 (mouse, UniProt O55038 22-109, biotinylated in the ELISA of Example 1.1.A.1 (sites not given); unlabelled in Biacore)
- T1 construct: Bought recombinant protein (R&D Systems); also called murine CXCL13; mCXCL13
- T1 sequence: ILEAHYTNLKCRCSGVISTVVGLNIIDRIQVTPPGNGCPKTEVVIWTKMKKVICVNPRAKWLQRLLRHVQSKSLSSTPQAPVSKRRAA
- assay: ELISA, antibody captured by goat anti-mouse IgG Fc, biotinylated mouse CXCL13 detected with streptavidin-HRP
quantity-name: pEC50
Friendly reminder that pEC50 comes from taking -log10 of the concentration in mol/L.

XW25-2C4-4H8 (antibody, V domains shown, Mouse anti-mouse CXCL13 monoclonal antibody purified from hybridoma) VH: QVQLQQPGTELVKPGASVKLSCKASGYNFATYWMHWVKQRPGQGLEWIGNINPSDGGTNFNEKFNNKATLTVDKSSSTAYMQLSSLTSEDSAVYYCAKWGGHYVLYWYFDVWGTGTTVTVSS VL: DIVLTQSPATLSVTPGDSVSLSCRASQSISSNLHWYQQKSHESPRLLITYASQSISGIPSRFSGSGSGTDFTLSINSVESEDVGVYFCQQSDSWPLTFGAGTKLELKR :: 10.70
XW25-4F2-5D2 (antibody, V domains shown, Mouse anti-mouse CXCL13 monoclonal antibody from hybridoma) VH: QVQLQQPGTELVKPGASVKLSCKASGYNFPTYWMHWVKQRPGQGLEWIGNINPSDGGTNFNEKFNNKATLTVDKSSSTAYMQLSSLTSEDSAVYYCAKWGGHYVLYWYFDVWGTGTTVTVSS VL: DIVLTQSPATLSVTPGDSVSLSCRASQSISNNLHWYQQKSHESPRLLITYASQSISGIPSRFSGSGSGTDFTLSINSVESEDVGVYFCQQSDSWPLTFGAGTKLELKR :: 10.70
XW25-3B5-3F4 (antibody, V domains shown, Mouse anti-mouse CXCL13 monoclonal antibody from hybridoma) VH: QVQLQQPGTELVKPGTSVKLSCKASGYTFTSYWMHWVKQRPGQGLEWIGNINPSDGGIKYNEKFKSKATLTVDKSSSTAYMELSSLTSEDSAVYYCAKWGGHYVLYWYFDVWGTGTTVTVSS VL: DIVLTQSPATLSVTPGDSVSLSCRASQSISNNLHWYQQKSHESPRLLINYASQSISGIPSRFSGSGSGTDFTLSINSVETEDFGMYFCQQSNSWPLTFGAGTKLELKR :: 10.40
XW25-5D11-4F3-3D11 (antibody, V domains shown, Mouse anti-mouse CXCL13 monoclonal antibody purified from hybridoma) VH: EVQVQQSGAELVRPGSSVKMSCKTSGYTFTNYGIIWVKQRPGQGLEWIGYIYIGKGYTEYNEKFKGKATLTSDTSSSTVYMQLSSLTSEDSAIYFCARGAHYYGNAMDYWDQGTSVTVSS VL: DIQMTQTTSSLSASLGDRVTISCRSSQDISNFLNWYQQRPDGTVKLLIYYTSRLHSGVPSRFSGSGSGTDYSLTISNLEQEDIATYFCQQGDTLPWTFGGGTKLEIKR :: 10.52

// next entry
Dear colleague, I am looking for the recorded pEC50 of the following binder: XW25-9C10-4B11 (antibody, V domains shown, Mouse anti-mouse CXCL13 monoclonal antibody from hybridoma) VH: QVQLQQPGTELVKPGASVKLSCKASGYNFATYWMHWVKQRPGQGLEWIGNINPSDGGTNFNEKFNSKATLTVDKSSSTAYMQLSSLTSEDSAVYYCAKWGGHYVLYWYFDVWGTGTTVTVSS VL: DIVLTQSPATLSVTPGDSVSLSCRASQSISSNLHWYQQKSHESPRLLITYASQSISGIPSRFSGSGSGTDFTLSINSVESEDVGVYFCQQSDSWPLTFGAGTKLELKR
11.00
